Can you tell me IC50 for the items I'm about to list?
assayTarget: 5-lipoxygenase (Homo sapiens (Human))
testName: Stimulation of isolated PMN (neutrophils) for 5-LO products
Assay type: cell-based
conditionLabel: ranges indicate confidence interval, read-out: PMN dose-response
Use nM as the unit, but write only the number.

Problem: State the recorded IC50 for this entry: O=C(/C=C/c1ccc(O)c(O)c1)OCCCCCCc1ccccc1
Solution: 840

Problem: IC50 lookup needed for O=C(/C=C/c1ccc(O)c(O)c1)OC/C=C/c1ccccc1 , thanks.
Solution: 1030

Problem: Requested field: IC50. Item: COc1cc(/C=C/C(=O)OCCCc2ccccc2)cc(OC)c1O
Solution: 350

Problem: Fill in: IC50 of O=C(CCc1ccc(O)c(O)c1)OCCCCCc1ccccc1 is ___
Solution: 860

Problem: Name the reported IC50 value associated with the compound O=C(Cc1ccc(O)c(O)c1)OCCCc1ccccc1
Solution: 790

----------
assayTarget: COX-1 (Homo sapiens (Human), UniProt P23219)
Sequence (P23219 24-599): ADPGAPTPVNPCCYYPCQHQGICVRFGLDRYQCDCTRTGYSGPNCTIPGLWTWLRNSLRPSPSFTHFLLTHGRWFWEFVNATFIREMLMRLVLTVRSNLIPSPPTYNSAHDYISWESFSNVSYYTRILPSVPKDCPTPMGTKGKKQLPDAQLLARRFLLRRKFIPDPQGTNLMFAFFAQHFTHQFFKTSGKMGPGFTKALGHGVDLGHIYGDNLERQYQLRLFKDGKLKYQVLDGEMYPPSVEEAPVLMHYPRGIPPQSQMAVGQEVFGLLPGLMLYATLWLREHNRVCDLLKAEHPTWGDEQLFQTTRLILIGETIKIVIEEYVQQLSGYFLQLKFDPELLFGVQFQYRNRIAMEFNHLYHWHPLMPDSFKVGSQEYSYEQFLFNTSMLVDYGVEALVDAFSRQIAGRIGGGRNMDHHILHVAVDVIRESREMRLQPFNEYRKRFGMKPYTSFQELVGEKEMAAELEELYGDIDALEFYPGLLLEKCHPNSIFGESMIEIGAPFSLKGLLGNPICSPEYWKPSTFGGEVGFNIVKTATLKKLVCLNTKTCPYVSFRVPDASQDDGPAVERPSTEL
testName: COX-1 inhibitory activity in human platelets
Type: cell-based
conditionLabel: read-out: Percent inhibition at 1 μM
property: inhibition at 1 µM (%)
Kindly answer with a numeric value in %, unit omitted.

Problem: What value of inhibition at 1 µM has been reported for the following molecule? COc1ccc(CCOC(=O)/C=C/c2ccc(O)c(O)c2)cc1 [Compound 22]
Solution: 39.6

Problem: For the molecule Cc1ccc(CCOC(=O)/C=C/c2ccc(O)c(O)c2)cc1 [Compound 21] , what inhibition at 1 µM is on record?
Solution: 44.6

Problem: Any idea what its inhibition at 1 µM is? The molecule is O=C(CCc1ccc(O)c(O)c1)OCCc1ccccc1 [Compound 32]
Solution: 42

Problem: Entry under review: O=C(/C=C/c1ccc(O)c(O)c1)OCCc1ccc(F)cc1 [Compound 20] . Reported inhibition at 1 µM?
Solution: 37.2

----------
assayTarget: 5-lipoxygenase (Homo sapiens (Human))
testName: Ex vivo whole blood stimulation with zymosan; total 5-LO products
Assay type: cell-based
conditionLabel: zymosan-stimulated whole blood; read-out: Whole blood dose-response
Method: Each compound or its diluent was added to heparinized blood obtained from healthy donors (1 mL) at the indicated concentration and incubated for 10 min at 37° C. in a water bath. Following incubations, 125 μL of 40 mg/mL opsonised zymosan was added to each sample, gently vortexed and incubated for 30 min at 37° C. […] Total 5-LO products quantified represents the sum of LTB4, its trans isomers, 20-COOH— and 20-OH-LTB4 and 5-hydroxyeicosatetraenoic acid.
property: IC50 (nM)
Give the value, in units of nM, as a plain number.

Problem: Look up IC50 for this compound: O=C(OCCc1ccccc1)c1cc(O)c(O)c(O)c1 [Compound 38, phenethyl 3,4,5-trihydroxybenzoate]
Solution: 2800

Problem: Need IC50, item O=C(/C=C/c1ccc(O)c(O)c1)OCCc1ccccc1 [CAPE, caffeic acid phenethyl ester, reference compound]
Solution: 3400

Problem: Could you share which IC50 value was measured for O=C(CCc1ccc(O)c(O)c1)OCCCCCCc1ccccc1 [Compound 3] ?
Solution: 2400

Problem: Reported IC50 for O=C(CCc1ccc(O)c(O)c1)OCCCCCc1ccccc1 [Compound 2] : what is it?
Solution: 2800

----------
assayTarget: 5-lipoxygenase (Homo sapiens (Human), UniProt P09917)
Sequence (P09917 whole entry): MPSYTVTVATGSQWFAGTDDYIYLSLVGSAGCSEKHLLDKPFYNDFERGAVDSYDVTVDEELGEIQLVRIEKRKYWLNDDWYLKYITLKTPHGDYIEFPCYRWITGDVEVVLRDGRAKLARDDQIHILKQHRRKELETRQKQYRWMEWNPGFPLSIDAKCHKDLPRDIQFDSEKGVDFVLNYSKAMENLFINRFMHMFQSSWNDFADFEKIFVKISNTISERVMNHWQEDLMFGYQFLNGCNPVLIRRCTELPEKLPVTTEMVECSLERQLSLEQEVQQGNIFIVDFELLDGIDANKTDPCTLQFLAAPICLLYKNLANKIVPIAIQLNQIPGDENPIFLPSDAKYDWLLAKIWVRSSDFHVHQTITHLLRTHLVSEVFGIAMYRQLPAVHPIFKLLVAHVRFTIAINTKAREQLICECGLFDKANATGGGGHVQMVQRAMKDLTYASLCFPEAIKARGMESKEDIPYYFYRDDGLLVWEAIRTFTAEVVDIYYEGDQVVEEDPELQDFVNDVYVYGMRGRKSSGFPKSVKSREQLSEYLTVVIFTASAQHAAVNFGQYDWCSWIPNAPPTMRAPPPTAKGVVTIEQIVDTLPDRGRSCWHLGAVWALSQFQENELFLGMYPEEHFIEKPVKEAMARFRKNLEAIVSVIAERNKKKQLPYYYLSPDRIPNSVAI
testName: Stimulation of HEK293 cells stably transfected with 5-LO and FLAP; total 5-LO products by HPLC
Type: cell-based
conditionLabel: HEK293 cells expressing 5-LO and FLAP; ranges indicate confidence interval; read-out: HEK Dose-response
property: IC50

Problem: Value lookup for IC50; key = O=C(/C=C/c1ccc(O)c(O)c1)OCCc1ccccc1 [CAPE, caffeic acid phenethyl ester, reference compound]
Solution: 650 to 1200 nM

The reported numbers originate from patent US20240425441A9.
